Below, each entry is listed alongside its reported % Binding.
target_or_test_system: T1, native membrane bound porcine CD163 on primary porcine alveolar macrophages (porcine, UniProt Q2VL90 47-1115)
T1 construct: also called PAM CD163-WT; pPAM
T1 sequence: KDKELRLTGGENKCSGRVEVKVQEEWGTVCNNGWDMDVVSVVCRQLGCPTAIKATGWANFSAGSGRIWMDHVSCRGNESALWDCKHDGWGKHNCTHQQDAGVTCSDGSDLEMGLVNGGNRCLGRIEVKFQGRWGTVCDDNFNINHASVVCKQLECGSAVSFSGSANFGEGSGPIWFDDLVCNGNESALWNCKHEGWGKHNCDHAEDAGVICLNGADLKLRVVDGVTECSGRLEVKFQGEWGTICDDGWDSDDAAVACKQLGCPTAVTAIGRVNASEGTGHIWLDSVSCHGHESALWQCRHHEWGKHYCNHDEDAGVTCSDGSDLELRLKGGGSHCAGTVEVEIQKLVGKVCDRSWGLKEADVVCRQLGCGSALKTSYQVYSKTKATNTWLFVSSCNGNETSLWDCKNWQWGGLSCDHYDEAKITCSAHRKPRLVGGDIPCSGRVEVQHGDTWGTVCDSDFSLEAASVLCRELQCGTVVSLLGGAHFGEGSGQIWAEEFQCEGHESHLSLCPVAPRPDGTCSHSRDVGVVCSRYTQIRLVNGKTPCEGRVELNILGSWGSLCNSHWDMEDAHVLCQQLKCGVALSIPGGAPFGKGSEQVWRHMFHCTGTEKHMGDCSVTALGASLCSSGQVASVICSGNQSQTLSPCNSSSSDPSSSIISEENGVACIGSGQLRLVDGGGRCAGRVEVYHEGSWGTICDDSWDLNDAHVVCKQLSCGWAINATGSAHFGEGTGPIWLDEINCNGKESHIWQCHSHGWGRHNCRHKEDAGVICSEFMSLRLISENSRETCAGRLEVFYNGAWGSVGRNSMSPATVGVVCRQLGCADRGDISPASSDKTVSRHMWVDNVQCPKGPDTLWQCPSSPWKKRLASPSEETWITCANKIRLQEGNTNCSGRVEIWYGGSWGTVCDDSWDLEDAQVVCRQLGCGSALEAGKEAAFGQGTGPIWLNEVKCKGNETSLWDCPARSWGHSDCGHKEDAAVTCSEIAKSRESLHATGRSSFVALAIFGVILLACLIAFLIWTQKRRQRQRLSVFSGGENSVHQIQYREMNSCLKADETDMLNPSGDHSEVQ
assay_method_text: flow cytometry, PAM CD163-WT, 4C
The reply should read as a number followed by its unit.

// worked examples, % Binding included
binder: VHH 019 (3E11) (VHH, Llama single domain antibody; also called 47(#19); VHCDR3 47(#19); not shown: tags: c-myc tag in periplasmic extract (ELISA, FACS); FLAG and His tags in purified VHH (SPR, infection assays)) VHH: QVQLQESGGGLVQVGSSLRLSCVTSGRTPSRYVMGWFRQAPGQEREFVAAISWSGRAPYADSVKGRFTISRDNAKNTVYLQMNSLKPEDTGVYYCAGGEGAIKWTTLDAYDYWGQGTQVTVSS
% Binding: 93.8%
//
binder: VHH 016 (2H11) (VHH, Llama single domain antibody; also called 77(#16); VHCDR3 77(#16); not shown: tags: c-myc tag in periplasmic extract (ELISA, FACS); FLAG and His tags in purified VHH (SPR, infection assays)) VHH: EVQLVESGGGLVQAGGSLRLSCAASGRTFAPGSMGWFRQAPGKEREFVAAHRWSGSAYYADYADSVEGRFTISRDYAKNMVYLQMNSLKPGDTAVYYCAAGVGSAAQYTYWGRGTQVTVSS
% Binding: 61%
//
binder: VHH 018 (3E01) (VHH, Llama single domain antibody; also called 49(#18); VHCDR3 49(#18); not shown: tags: c-myc tag in periplasmic extract (ELISA, FACS); FLAG and His tags in purified VHH (SPR, infection assays)) VHH: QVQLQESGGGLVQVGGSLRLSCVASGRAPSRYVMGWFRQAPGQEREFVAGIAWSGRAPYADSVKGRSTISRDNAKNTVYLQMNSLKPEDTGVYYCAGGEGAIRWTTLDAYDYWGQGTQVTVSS
% Binding: 80.1%
//
binder: VHH 023 (4E10) (VHH, Llama single domain antibody; also called 70(#23); VHCDR3 70(#23); not shown: tags: c-myc tag in periplasmic extract (ELISA, FACS); FLAG and His tags in purified VHH (SPR, infection assays)) VHH: QVQLVESGGGLVQAGGSLRLSCVASSRTSSTYAMGWFRQGPGKERDFVAIISFGGTFYADSVKGRFTISRDNAKNTVYLQMNSLKPEDTAVYYCAAGRTLSKRADSYASWGQGTQVTVSS
% Binding: 8.75%
//
binder: VHH 008 (1H01) (VHH, Llama single domain antibody; also called 78(#8); VHCDR3 78(#8); not shown: tags: c-myc tag in periplasmic extract (ELISA, FACS); FLAG and His tags in purified VHH (SPR, infection assays)) VHH: QVQLVESGGGLVQAGGSLRLSCAASGRTFGTYSMGWFRQAPGKEREFVAAHRWSGSAYYAEHADSVEGRFTISRDYAKNMLYLQMNSLKHEDTAVYYCAAGVGSEAQYRYWGRGTQVTVSS
% Binding: 38.8%

Challenge: Indicate the recorded % Binding value for this binder: VHH 001 (1B02) (VHH, Llama single domain antibody; also called 144(#1); VHCDR3 144(#1); not shown: tags: c-myc tag in periplasmic extract (ELISA, FACS); FLAG and His tags in purified VHH (SPR, infection assays)) VHH: EVQLVESGGGLVQAGGSLSLSCAASGGTLAMYAMSWFRQAPGKDRKFVAAINTSGRYSRYADSVKGRFTISRDNAKNTATLQMNSLEPEDTAVYYCAATDKGNWALAMSYDYWGQGTQVTVSS
Response given: 0.97%
